The entries below pair compounds with Ki values for UniProt:P28222, as found in several publications.
Sequence (P28222 whole entry): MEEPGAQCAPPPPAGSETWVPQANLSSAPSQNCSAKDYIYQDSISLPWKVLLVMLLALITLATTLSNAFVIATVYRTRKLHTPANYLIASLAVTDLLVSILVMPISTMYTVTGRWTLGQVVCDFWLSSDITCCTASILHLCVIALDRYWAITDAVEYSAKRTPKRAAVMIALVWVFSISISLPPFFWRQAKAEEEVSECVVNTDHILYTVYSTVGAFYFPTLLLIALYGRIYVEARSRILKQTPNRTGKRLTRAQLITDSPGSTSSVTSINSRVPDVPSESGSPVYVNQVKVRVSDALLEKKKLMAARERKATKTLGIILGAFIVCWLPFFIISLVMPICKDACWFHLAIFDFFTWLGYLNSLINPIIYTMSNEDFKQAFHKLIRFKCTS
Quick note: give the figure in µM, leave out the unit.

{"columns": ["compound", "Ki (µM)"],
 "data": [
  ["CCNC(=O)Nc1cccc(CC2CCN(CCOc3cccc4nc(C)ccc34)CC2)c1", 0.0251],
  ["CCCN(CCc1ccccc1)C1CCc2ccc3[nH]cc(C=O)c3c2C1 (centres undefined)", 0.056],
  ["Cc1ccc2c(OCCN3CCC(Cc4cccc(C5CCN(S(C)(=O)=O)CC5)c4)CC3)cccc2n1", 0.0794],
  ["CN1CCC(c2c[nH]c3ccc(NC(=O)CC(=O)Nc4ccc5[nH]cc(C6CCN(C)CC6)c5c4)cc23)CC1", 0.016],
  ["CNC(C)COc1ccc(Cl)cc1Cl (racemic)", 4.2],
  ["CN1CCC(c2c[nH]c3ccc(NC(=O)CCCCCCCCCC(=O)Nc4ccc5[nH]cc(C6CCN(C)CC6)c5c4)cc23)CC1", 0.0013]
]}

Now look at this entry.
Query: Which Ki value belongs to CCCN1[C@H](C)CN(c2cc3c(cc2OC)CCN3C(=O)c2ccc(-c3cccc(C)n3)c3ccccc23)C[C@@H]1C ?
Result: 0.0316
